tested on: IL-2-FL/Gaussia Luciferase; experiment: Dox Induced IL2-FL-Gluc Assay; assay type: cell-based; details: 24 hr doxycycline induction, 293FRT/TO cells, Gaussia luciferase signal; read-out: 24 hr Dox Inducible IL2FLGIuc 293FRT/TO: Mean IC50
pIC50: −log10 of the molar value.
MEASURED ATTRIBUTE: pIC50

Example entries and their recorded answers appear below.
{"COMPOUND": "COCc1cnc(NC(=O)c2cccn2Cc2ccncc2)s1 [Compound A94]", "pIC50": "< 4.60"}
{"COMPOUND": "O=C(Nc1nc2cccnc2s1)c1cccn1Cc1ccncc1 [Compound A121]", "pIC50": "< 4.60"}

We next turn to a different compound, shown below.
Fill in pIC50 for record CC(C)(O)c1cnc(NC(=O)c2cccn2Cc2ccncc2)s1 [Compound A89]
< 4.60
